Reference source for all entries: paper PMC5290327

target: a2 (non-selective); experiment: Radioligand binding; conditions: control compound; read-out: Control specific binding Ki

{"compound": "COC(=O)[C@@H]1[C@H]2C[C@H]3c4[nH]c5ccccc5c4CCN3C[C@@H]2CC[C@@H]1O [yohimbine, reference compound]", "Ki": "30 nM"}
